Here, each record is paired with measured growth data.
Test system: NCI-H460 lung
Test: NCI-60 one-dose screen, 48 h (100 = growth as untreated, 0 = no growth, -100 = all killed)
Settings: 10 µM unless noted
Protocol: Growth inhibition of the NCI-H460 human Non-Small Cell Lung tumor cell line is measured as a screen for anti-cancer activity. Cells are grown in 96 well plates and exposed to the test compound for 48 hours. Compounds are tested at a single concentration, which is 10^-5 M for most compounds. The reported endpoint is percent growth (GI% or GIPRCNT), where numbers from 0 - 100% represent growth inhibition, and numbers from -100% - 0 represent cell death. […]
This is part of a sample that, as a whole, favours compounds with a hit. Of some 83,000 tested, about 20% had one in any assay.
# value in %; strip the unit string

[[record]]
query_smiles = "Cc1cc(Nc2ncc(Cl)c(Nc3ccccc3S(=O)(=O)C(C)C)n2)c(OC(C)C)cc1C1CCNCC1"
endpoint_label = "growth"
assay_result = -86.5


Look at this compound and give its reported growth. CCOc1cc2ncc(C#N)c(Nc3ccc(F)c(Cl)c3)c2cc1NC(=O)/C=C/CN(C)C -44

Look at this compound and give its reported growth. COc1cc2c(Nc3ccc(Br)cc3F)ncnc2cc1OCC1CCN(C)CC1 39.9

Look at this compound and give its reported growth. CN(C)C[C@@H]1CCn2cc(c3ccccc32)C2=C(C(=O)NC2=O)c2cn(c3ccccc23)CCO1 -70.6

Look at this compound and give its reported growth. Cc1cc(-c2cc(OC(=O)c3ccccc3)ccc2Cl)cc2nnc(Nc3ccc(OCCN4CCCC4)cc3)nc12 81.6

Look at this compound and give its reported growth. C[C@@H](C[C@H](CCO)c1cc(C(F)(F)F)cc(C(F)(F)F)c1)c1ccc2ccccc2c1 106

Look at this compound and give its reported growth. O=C(c1ccc(F)c(F)c1Nc1ccc(I)cc1F)N1CC(O)([C@@H]2CCCCN2)C1 18.8

Look at this compound and give its reported growth. Cc1cc(C2(c3ccc(O)c(C)c3)OS(=O)(=O)c3ccccc32)ccc1O 103

Look at this compound and give its reported growth. N#Cc1c(-c2ccc(Cl)cc2)csc1NC(=O)Nc1cccc(C(F)(F)F)c1 5.61

---

Test system: COLO 205 colon
Experiment: NCI-60 one-dose screen, 48 h
Conditions: 10 µM unless noted
Procedure: Cells are grown in 96 well plates and exposed to the test compound for 48 hours. Compounds are tested at a single concentration, which is 10^-5 M for most compounds. The reported endpoint is percent growth (GI% or GIPRCNT), where numbers from 0 - 100% represent growth inhibition, and numbers from -100% - 0 represent cell death. For example, a value of 40 represents 60% growth inhibition. A value of 0 means no net growth occurred over the course of the experiment. […]
Compounds without any hit were thinned out: in the full panel of roughly 83,000, 20% have a hit. Calls of active or inactive are those of the source. The calls were made as follows: active = growth percent below 10; inactive = the rest.
Would you mind answering with one of these outcomes? true = active, false = inactive

The examples below pair each entry with its known result.
[[record]]
compound = "Cn1ccnc1C(=O)/C=C/c1ccc(CC(=O)Nc2ccc(S(F)(F)(F)(F)F)cc2)cc1"
discrete_label = "true"

[[record]]
compound = "COc1ccc(-c2ccc3c(N4CCOC[C@@H]4C)nc(N4CCOC[C@@H]4C)nc3n2)cc1CO"
discrete_label = "true"

[[record]]
compound = "CC/C(=C(/c1ccc(Cl)cc1)c1ccc(OCCN2CCCCC2)cc1)c1ccc(Cl)cc1"
discrete_label = "false"

[[record]]
compound = "COc1ccc(-c2nocc2-c2cc(OC)c(OC)c(OC)c2)cc1"
discrete_label = "true"

[[record]]
compound = "CC(=O)CC1CCCC1c1ccc2ccccc2c1 (stereo not drawn)"
discrete_label = "false"

[[record]]
compound = "O=C(COc1cccc(/C=C2\\Cc3ccc(Cl)cc3C2=O)c1)Nc1nccs1"
discrete_label = "false"

[[record]]
compound = "CN1CCC(COc2cnc(-c3cccc(Cn4nc(-c5cccc(C#N)c5)ccc4=O)c3)nc2)CC1"
discrete_label = "true"

[[record]]
compound = "COc1ccc2c(CCCc3ccc(Cl)cc3Cl)c3[n+](cc2c1OC)CCc1cc2c(cc1-3)OCO2"
discrete_label = "true"

[[record]]
compound = "COc1cc(N2CCC(N(C)C)CC2)ccc1Nc1ncc(Cl)c(Nc2ccccc2P(C)(C)=O)n1"
discrete_label = "true"

[[record]]
compound = "C[C@@H]1COCCN1c1cc(C2([S@](C)(=N)=O)CC2)nc(-c2ccnc3[nH]ccc23)n1"
discrete_label = "false"


Just curious, what result did CSc1nc2ncncc2[nH]1 get here? false

Just curious, what result did CCN(CC)CCOc1ccc(/C(=C(\C)c2ccc(Cl)cc2)c2ccc(Cl)cc2)cc1 get here? true
